Tested on: Saccharomyces cerevisiae PS128 hsf1 delta, HSF1(1-493) fusion
experimentNotes: growth estimate (transactivation domain function in HSF1 fusion, heat-shock survival) (a.u. (slope of normalised read count over time)); higher = stronger growth at 37°C, i.e. more transactivation activity
statedConditions: library: design library
Kindly return met if reported growth estimate is no lower than -0.2; return not met if it is lower.

Assess whether reported growth estimate for `PFPDTQDDFLKWWRSEPAQ` sits at -0.2 or higher.
not met

Assess whether reported growth estimate for `KDLYSILWSDVY` sits at -0.2 or higher.
not met

Assess whether reported growth estimate for `TADDVYNYLFDD` sits at -0.2 or higher.
met

Assess whether reported growth estimate for `EFNDLLALDFILSN` sits at -0.2 or higher.
met

Assess whether reported growth estimate for `QQNGEIAQLWDFK` sits at -0.2 or higher.
not met

Assess whether reported growth estimate for `EFNDLLDPDFILSN` sits at -0.2 or higher.
met

Assess whether reported growth estimate for `QQNGEIAALWDFN` sits at -0.2 or higher.
not met

Assess whether reported growth estimate for `EFNRLLDLDFILSN` sits at -0.2 or higher.
not met

* * *

Provide the recorded growth estimate for the entries that follow.
Test system: Saccharomyces cerevisiae PS128 hsf1 delta, HSF1(1-493) fusion
experimentNotes: growth estimate (transactivation domain function in HSF1 fusion, heat-shock survival) (a.u. (slope of normalised read count over time)); higher = stronger growth at 37°C, i.e. more transactivation activity
statedConditions: library: design library
Write the value as a bare number.

Reported growth estimate for `TRDDVYNYLFDD` : what is it?
-0.222

Reported growth estimate for `LFDYDFLFGPDFA` : what is it?
10.1

Reported growth estimate for `EDDDEFSLWDSMA` : what is it?
-0.238

Reported growth estimate for `MLSAHGFSVDTSALLDLFSP` : what is it?
-0.231

Reported growth estimate for `DLDESWDYIFETAE` : what is it?
1.08

Reported growth estimate for `LKDYDFLFGNDFA` : what is it?
-0.0701

Reported growth estimate for `MLSSHGFRVDTSALLDLFSP` : what is it?
-0.241

Reported growth estimate for `LFDYRFLFGNDFA` : what is it?
-0.216

Reported growth estimate for `DFDLDMAGDFDLDMLG` : what is it?
11.3

Reported growth estimate for `EDDDEPSLWDSML` : what is it?
0.0815

Reported growth estimate for `VADDIWEALLSEDL` : what is it?
8.8

Reported growth estimate for `ERNDLLDLDFILSN` : what is it?
-0.237

Reported growth estimate for `DFDLDMLGDFDPDMLG` : what is it?
10.6

Reported growth estimate for `PEFPGIELQELQELQALLRQ` : what is it?
-0.245

Reported growth estimate for `PEFPGIELKELQELQALLQQ` : what is it?
-0.217

Reported growth estimate for `DFDLKMLGDFDLDMLG` : what is it?
3.04

Reported growth estimate for `TMDDAYNYLFDD` : what is it?
-0.228

Reported growth estimate for `VADDIWEELLGEDL` : what is it?
2.11

Reported growth estimate for `EDLYSIKWSDVY` : what is it?
-0.245

Reported growth estimate for `QQNGEIAQLWRFN` : what is it?
-0.166

Reported growth estimate for `PEFPGIELQELQELQALLQQ` : what is it?
-0.0979

Reported growth estimate for `AFDYDFLFGNDFA` : what is it?
10.5

Reported growth estimate for `VADDIWEELLSEAL` : what is it?
5.63

Reported growth estimate for `EFNDLLDLDFIASN` : what is it?
0.58

* * *

Tested on: Saccharomyces cerevisiae PS128 hsf1 delta, HSF1(1-493) fusion
experimentNotes: growth estimate (transactivation domain function in HSF1 fusion, heat-shock survival) (a.u. (slope of normalised read count over time)); higher = stronger growth at 37°C, i.e. more transactivation activity
statedConditions: library: design library
Provide the recorded growth estimate for the entries that follow.
Write the value as a bare number.

Reported growth estimate for `DFDLDMLGDFDLDMLA` : what is it?
1.83

Reported growth estimate for `LFDYDFLFGNAFA` : what is it?
0.211

Reported growth estimate for `MLSSHGFSVDTSALLDLFKP` : what is it?
-0.179

Reported growth estimate for `PEFPGIELQELQELQRLLQQ` : what is it?
-0.177

Reported growth estimate for `LFDYKFLFGNDFA` : what is it?
0.0164

Reported growth estimate for `DLDESWDYIFETGE` : what is it?
1.44

Reported growth estimate for `DFDLDMLGDFDLDMAG` : what is it?
30.2

Reported growth estimate for `EDDDEFSPWDSML` : what is it?
-0.228

Reported growth estimate for `VADDIWEELLSEDL` : what is it?
0.661

* * *

System: Saccharomyces cerevisiae PS128 hsf1 delta, HSF1(1-493) fusion
experimentNotes: growth estimate (transactivation domain function in HSF1 fusion, heat-shock survival) (a.u. (slope of normalised read count over time)); higher = stronger growth at 37°C, i.e. more transactivation activity
statedConditions: library: design library
recordedMetric: growth estimate
Write the value as a bare number.

Reported growth estimate for `DELSGIIELLEKDG` : what is it?
-0.238

Reported growth estimate for `EDLYSILWPDVY` : what is it?
1.01

Reported growth estimate for `QQNGERAQLWDFN` : what is it?
-0.0438

Reported growth estimate for `DLDEGWDYIFETTE` : what is it?
0.787

Reported growth estimate for `MLSSHGFAVDTSALLDLFSP` : what is it?
-0.142

Reported growth estimate for `MLSSHGFSPDTSALLDLFSP` : what is it?
0.374

Reported growth estimate for `EDLYSALWSDVY` : what is it?
0.125

Reported growth estimate for `MLSSHGFSVDTSALLDLFAP` : what is it?
-0.0921

Reported growth estimate for `EDLYGILWSDVY` : what is it?
0.0695

Reported growth estimate for `VADDIWEELLSGDL` : what is it?
3.96

Reported growth estimate for `EDLYSILWADVY` : what is it?
-0.181

Reported growth estimate for `LFPYDFLFGNDFA` : what is it?
1.32

Reported growth estimate for `MLSSHGFSVDTPALLDLFSP` : what is it?
-0.228

Reported growth estimate for `RDLYSILWSDVY` : what is it?
-0.248

Reported growth estimate for `DLDASWDYIFETTE` : what is it?
0.507

Reported growth estimate for `DLDESWDYIFETTK` : what is it?
-0.0269

Reported growth estimate for `EFNDLLDLKFILSN` : what is it?
-0.169

Reported growth estimate for `DEPSWIIELLEKDG` : what is it?
-0.161

Reported growth estimate for `EFNGLLDLDFILSN` : what is it?
-0.173

Reported growth estimate for `VADDIWEELLAEDL` : what is it?
2.64

Reported growth estimate for `DELSWIIEALEKDG` : what is it?
0.0037

Reported growth estimate for `DFDLDMLGDPDLDMLG` : what is it?
10.1

Reported growth estimate for `EFNDLLDLDFIRSN` : what is it?
-0.0675

Reported growth estimate for `PFPDTQDDFRKWWRSEEAQ` : what is it?
-0.247

Reported growth estimate for `DFDLDMLGDGDLDMLG` : what is it?
-0.147

Reported growth estimate for `DFDLDMLGDFDKDMLG` : what is it?
0.54

Reported growth estimate for `EFPDLLDLDFILSN` : what is it?
0.17

Reported growth estimate for `LADYDFLFGNDFA` : what is it?
2.67

Reported growth estimate for `PFPDTQDDFLKWWRSPEAQ` : what is it?
-0.176

* * *

Test system: Saccharomyces cerevisiae PS128 hsf1 delta, HSF1(1-493) fusion
experimentNotes: growth estimate (transactivation domain function in HSF1 fusion, heat-shock survival) (a.u. (slope of normalised read count over time)); higher = stronger growth at 37°C, i.e. more transactivation activity
statedConditions: library: design library
Kindly return Y if reported growth estimate is no lower than 0.08; return N if it is lower.

Assess whether reported growth estimate for `EDRDEFSLWDSML` sits at 0.08 or higher.
Y

Assess whether reported growth estimate for `EFNDLLDLDFILGN` sits at 0.08 or higher.
Y

Assess whether reported growth estimate for `ERLYSILWSDVY` sits at 0.08 or higher.
N

Assess whether reported growth estimate for `LFDYPFLFGNDFA` sits at 0.08 or higher.
Y

Assess whether reported growth estimate for `VGDDIWEELLSEDL` sits at 0.08 or higher.
Y

Assess whether reported growth estimate for `MLSSHGFSVDTSALLDLFGP` sits at 0.08 or higher.
N

Assess whether reported growth estimate for `DLDESWDYIGETTE` sits at 0.08 or higher.
N

Assess whether reported growth estimate for `PEFPGIELQELQELQALLQP` sits at 0.08 or higher.
N

Assess whether reported growth estimate for `MLSSHGPSVDTSALLDLFSP` sits at 0.08 or higher.
N

Assess whether reported growth estimate for `DELSWIIELLEKDP` sits at 0.08 or higher.
Y

Assess whether reported growth estimate for `DFDLDPLGDFDLDMLG` sits at 0.08 or higher.
Y

Assess whether reported growth estimate for `QQNGEGAQLWDFN` sits at 0.08 or higher.
N

Assess whether reported growth estimate for `DPDESWDYIFETTE` sits at 0.08 or higher.
Y

Assess whether reported growth estimate for `PFPDTQDDFLKWWRSEEAK` sits at 0.08 or higher.
N

Assess whether reported growth estimate for `AELSWIIELLEKDG` sits at 0.08 or higher.
N

Assess whether reported growth estimate for `EFNDLLDLDFKLSN` sits at 0.08 or higher.
N

Assess whether reported growth estimate for `KDDDEFSLWDSML` sits at 0.08 or higher.
Y

Assess whether reported growth estimate for `KMDDVYNYLFDD` sits at 0.08 or higher.
N

Assess whether reported growth estimate for `TMDDVYNPLFDD` sits at 0.08 or higher.
N

Assess whether reported growth estimate for `LFDYDFLFPNDFA` sits at 0.08 or higher.
Y

Assess whether reported growth estimate for `VADDIWEELLSADL` sits at 0.08 or higher.
Y

Assess whether reported growth estimate for `DLDRSWDYIFETTE` sits at 0.08 or higher.
N

Assess whether reported growth estimate for `DLDESWDYKFETTE` sits at 0.08 or higher.
N

Assess whether reported growth estimate for `TMDDGYNYLFDD` sits at 0.08 or higher.
N

Assess whether reported growth estimate for `PQNGEIAQLWDFN` sits at 0.08 or higher.
N

Assess whether reported growth estimate for `EDDDEFSLPDSML` sits at 0.08 or higher.
N
